# Test system: ducksalad (Heteranthera limosa)
# test.protocol: Test B flooded paddy test
# Type: in vivo
# condition.context: Flood, 250 g ai/ha; 0 to 100 scale where 0 is no effect and 100 is complete control; 13 to 15 d
reported.metric: Plant response rating, Ducksalad
Returns: the value as a bare number; no unit string appended.

## Input Value lookup for Plant response rating, Ducksalad; key = CCc1cc(C2CNC(=O)C2C(=O)Nc2ccccc2F)cs1 (racemic)
## Output 100

## Input Value lookup for Plant response rating, Ducksalad; key = O=C1NCC(c2cc(F)cc(C(F)(F)F)c2)C1C(=O)Nc1cccc(F)c1F (centres unmarked)
## Output 90

## Input Value lookup for Plant response rating, Ducksalad; key = CN1CC(c2cc(F)cc(F)c2)C(C(=O)Nc2ccc(F)c(F)c2F)C1=O (centres unmarked)
## Output 98

## Input Value lookup for Plant response rating, Ducksalad; key = Nc1cccc(C2CNC(=O)C2C(=O)Nc2cccc(F)c2F)c1 (centres unmarked)
## Output 0

## Input Value lookup for Plant response rating, Ducksalad; key = O=C1NCC(c2ccc(F)cc2F)C1C(=O)Nc1ccccc1F (centres unmarked)
## Output 65

====

# Test system: corn (Zea mays)
# test.protocol: Test A postemergence
# Assay type: in vivo
# condition.context: Zea mays, post-emergence, 240 h, 125 g ai/ha, postemergence, visual injury rating after approximately 10 d; read-out: Corn plant response rating (0 to 100 scale, 0 no effect, 100 complete control)
I'd be grateful if you could share measured plant injury at 125 g/ha for these entries.
Value expressed in %; do not type the unit.

## Input Value lookup for plant injury at 125 g/ha; key = CN1CC[C@H](c2ccc3c(c2)OC(F)(F)O3)[C@@H](C(=O)Nc2cccc(F)c2F)C1=O [Compound 812]
## Output 80

## Input Value lookup for plant injury at 125 g/ha; key = Cc1c(F)ccc([C@H]2CN(C)C(=O)[C@@H]2C(=O)Nc2ccc(F)c(F)c2F)c1F [Compound 836]
## Output 70

## Input Value lookup for plant injury at 125 g/ha; key = CC(C)c1cccc([C@H]2CN(C)C(=O)[C@@H]2C(=O)Nc2ccc(F)cc2F)c1 [Compound 821]
## Output 40

## Input Value lookup for plant injury at 125 g/ha; key = CSc1ccccc1NC(=O)[C@H]1C(=O)N(C)CC[C@@H]1c1cccc(OC(F)(F)F)c1 [Compound 809]
## Output 0

## Input Value lookup for plant injury at 125 g/ha; key = CCOc1ccc([C@H]2CN(C)C(=O)[C@@H]2C(=O)Nc2ccccc2F)cc1 [Compound 903]
## Output 0

## Input Value lookup for plant injury at 125 g/ha; key = CN1C[C@H](c2cc(F)cc(F)c2)[C@@H](C(=O)Nc2ncc(C(F)(F)F)cc2F)C1=O [Compound 868]
## Output 0

## Input Value lookup for plant injury at 125 g/ha; key = Cc1cc(F)ccc1NC(=O)[C@H]1C(=O)NC[C@@H]1c1cccc(C(F)(F)F)c1 [Compound 828]
## Output 40

## Input Value lookup for plant injury at 125 g/ha; key = O=C1NC[C@H](c2ccc3c(c2)CCO3)[C@H]1C(=O)Nc1ccc(F)cc1F [Compound 902]
## Output 0

====

I'd be grateful if you could share measured Plant response rating, Kochia for these entries.
# Tested on: Kochia (Kochia scoparia)
# test.protocol: Test A postemergence
# Type: in vivo
# condition.context: 125 g ai/ha, postemergence; visual injury after approximately 10 d; 0 to 100 scale (0 no effect, 100 complete control)
# Source text: […]
Returns: the value as a bare number; no unit string appended.

## Input For Kochia (Kochia scoparia), provide Plant response rating, Kochia of O=C1NCC(c2cccc(OC(F)(F)C(F)F)c2)C1C(=O)Nc1ccc(F)c(F)c1F (racemic) [Compound 698] please.
## Output 50

## Input For Kochia (Kochia scoparia), provide Plant response rating, Kochia of O=C1NCC(c2cccc(Br)c2)C1C(=O)Nc1ccc(F)cc1F (racemic) [Compound 687] please.
## Output 0

## Input For Kochia (Kochia scoparia), provide Plant response rating, Kochia of O=C(Nc1ccccc1F)C1C(=O)N(CC2CC2)CC1c1cccc(C(F)(F)F)c1 (stereo not shown) [Compound 682] please.
## Output 0

## Input For Kochia (Kochia scoparia), provide Plant response rating, Kochia of O=C1NCC(c2cccc(OC(F)(F)C(F)F)c2)C1C(=O)Nc1cccc(F)c1F (racemic) [Compound 697] please.
## Output 60
